- Test system: MS2 coat protein
- Assay Name: apparent KD of MS2 coat protein; designed switch direction (-1 OFF switch, 1 ON switch): 1; higher = weaker reporter binding
- Run Parameters: Eterna round: R95; input ligand: none
Quantity Name: apparent KD of MS2 coat protein (nM)
The response must be a number in nM with no trailing unit.

Please review the entries below; each comes with its answer.
AACAAUCUAUCUCAGGAUAUCAUGUCAAAGACAUGAGGAUCACCCAUGUACCAGGAAACUGGUUAUGAGAAGGGAGAUAGAUUGG [Mat - Same State 2 - Mod - D28] (puzzle: Same State 2): 197
CGGGUACAUGAGGAUCACCCAUGUGGGAGGGAUGCAGGAUAUGUGGGAAAAGGGUAUGUAACAGAAGGGCAAGGAG [JR_SS!_Sub014] (puzzle: Same State 1): 45.1
UGUUAACAUGAGGAUCACCCAUGUCAAAUGAAUCGAGGAUAUGGUAAGUAAUAAGAUAAUCUAGAAGGCGAAGUUG [Altered State 1-23 - Jieux - Same State 1] (puzzle: Same State 1): 58
AACAAUCUAUCUGAGGAUAUCAUGAGAAGAACAUGAGGAUCACCCAUGUGCAGGAAAACUGCAUAUGAGAAGGCAGAUAGAUUGG [Mat - Same State 2 - Mod - D18] (puzzle: Same State 2): 1950

Continue with the sequence presented below.
The sequence listed as AGUCCAGCCUGAGCUGGACAAAAGCAUGUACAUGAGGAUCACCCAUGUUCAUGUACAAGCUUUUUGCUCGUCUUAUC [salish99_208a_r3_058] (puzzle: Sensor for hsa-mir-208a) has a reported apparent KD of MS2 coat protein of 677
